# Tested on: U251 human glioblastoma cell line
# procedure_summary: in vitro FM-HCR assay of MGMT activity (mPlum O^6MeG reporter plasmid)
# Format: cell-based
# measurement_context: 0.1% DMSO; U251 cells; flow cytometry 24 h after transfection; damaged/undamaged reporter; inversely related to MGMT activity
observation_type: Reporter expression (%) mean, DMSO

{"molecule": "Y158M: MGMT polypeptide with mutation Y158M (protein) MDKDCEMKRTTLDSPLGKLELSGCEQGLHEIKLLGKGTSAADAVEVPAPAAVLGGPEPLMQCTAWLNAYFHQPEAIEEFPVPALHHPVFQQESFTRQVLWKLLKVVKFGEVISYQQLAALAGNPKAARAVGGAMRGNPVPILIPCHRVVCSSGAVGNMSGGLAVKEWLLAHEGHRLGKPGLGGSSGLAGAWLKGAGATSGSPPAGRN", "observed_measurement": 47.7}
{"molecule": "P140Q: MGMT polypeptide with mutation P140Q (protein) MDKDCEMKRTTLDSPLGKLELSGCEQGLHEIKLLGKGTSAADAVEVPAPAAVLGGPEPLMQCTAWLNAYFHQPEAIEEFPVPALHHPVFQQESFTRQVLWKLLKVVKFGEVISYQQLAALAGNPKAARAVGGAMRGNPVQILIPCHRVVCSSGAVGNYSGGLAVKEWLLAHEGHRLGKPGLGGSSGLAGAWLKGAGATSGSPPAGRN", "observed_measurement": 15.3}
{"molecule": "M134W: MGMT polypeptide with mutation M134W (protein) MDKDCEMKRTTLDSPLGKLELSGCEQGLHEIKLLGKGTSAADAVEVPAPAAVLGGPEPLMQCTAWLNAYFHQPEAIEEFPVPALHHPVFQQESFTRQVLWKLLKVVKFGEVISYQQLAALAGNPKAARAVGGAWRGNPVPILIPCHRVVCSSGAVGNYSGGLAVKEWLLAHEGHRLGKPGLGGSSGLAGAWLKGAGATSGSPPAGRN", "observed_measurement": 103.5}

meta.source: patent US20250135039A1
